Each recorded value in this set is attributed to PubChem BioAssay (NCI).

# Test system: HOP-62 NSCLC
# ASSAY_OVERVIEW: NCI tumour cell line growth inhibition, 48 h
MEASUREMENT_LABEL: TGI

Recorded results for 3 compounds are shown here.
C[C@]1(O)CC(=O)c2c(c(-c3ccc4cc5c(c(O)c4c3O)C(=O)C[C@@](C)(O)C5)c3cccc(O)c3c2O)C1 = 10.9 µM
Clc1cccc(Cn2cc(Cc3cn(Cc4cccc(Cl)c4)c4ccccc34)c3ccccc32)c1 = > 100 µM
COc1cc(O)c2c(=O)c3ccccc3n(C)c2c1 = 79 µM

What measured TGI goes with CCOc1cc(NC(C)=O)ccc1C(=O)N/N=C/c1ccco1 ? > 100 µM

What measured TGI goes with COc1ccc(S(=O)(=O)Nc2cc(/C=C\c3cc(OC)c(OC)c(OC)c3)cc(OC)c2OC)cc1OC ? > 100 µM

What measured TGI goes with CCOC(=O)c1c(NS(=O)(=O)c2ccc(Br)cc2)sc2c1CCCC2 ? 14.1 µM

What measured TGI goes with CC1=C(C)C(=O)c2c(cc3c4ccccc4ccn23)C1=O ? > 100 µM

What measured TGI goes with NC(=O)c1ncn(C2OC(CO)C(O)C2O)n1 (stereo not given) ? > 100 µM

What measured TGI goes with O=C(/C=C\c1cccc([N+](=O)[O-])c1)c1ccccc1 ? 46.6 µM

What measured TGI goes with COC(=O)c1c2c(c[n+]([O-])c1C)C(=O)C(NCc1ccccc1)=CC2=O ? 2.94 µM

What measured TGI goes with COC(=O)C(C(=O)C(=O)Nc1c(Cl)cc([N+](=O)[O-])cc1Cl)c1nc2cc(C)c(C)cc2[nH]c1=O (stereo not given) ? > 100 µM

What measured TGI goes with NNC(=O)CC(=O)Nc1ccc(C(=O)O)cc1 ? > 100 µM
